- System: SW-620 colon
- protocolText: NCI tumour cell line growth inhibition, 48 h
observable: log10 TGI (log10 of the value in µM)
Kindly note that the scale is log10 and the underlying TGI is in µM.

> print(dat)
                                   compound  assayvalue
1  CC1(O)CC(=O)c2c(cc3ccc(-c4c5c(c(O)c6c(O)cccc46)C(=O)CC(C)(O)C5)c(O)c3c2O)C1 (configuration not stated)        1.28
2  COC(=O)c1c(O)ccc2c1c1c(n2Cc2cccc(C)c2)C(=O)c2ccccc2C1=O        1.51
3        O=c1oc2ccccc2cc1-c1cn2cc(Cl)ccc2n1        1.50
4          S=C1SCN(Cc2ccco2)CN1c1ccc(Br)cc1        1.79

Name the recorded log10 TGI of the item `CC[C@H](CO)Nc1nc(NCc2ccccc2)n2ncc(C(C)C)c2n1` in your answer. 0.75

====

- Test system: SNB-19 CNS
- protocolText: NCI tumour cell line growth inhibition, 48 h; in the data active = GI50 below about 0.43 µM; inactive = the rest
Form entry, call: pick from 1.0 = active, 0.0 = inactive

Please review the following examples before continuing.
molecule	classification
CCOc1ccccc1N=Nc1c(C)[nH]n(-c2nc(-c3ccccc3)cs2)c1=O	0.0
O=[N+]([O-])c1cccc([As]=[As]c2cccc([N+](=O)[O-])c2)c1 (stereo not given)	1.0
O=c1nc2oc3ccc4ccccc4c3cc-2s1	0.0
C[C@@H]1CC[C@H]2C(C(O)CCCCC(O)C3=C(C(F)(F)F)O[C@@H]4O[C@@]5(C)CC[C@H]6[C@H](C)CC[C@@H]3[C@@]46OO5)=C(C(F)(F)F)O[C@@H]3O[C@@]4(C)CC[C@@H]1[C@]32OO4 (stereo not given in full)	0.0

GET /call?item= `Clc1nc(Cl)c2ncn(C/C=C/COc3cccc(OC/C=C/Cn4cnc5c(Cl)nc(Cl)nc54)c3)c2n1` returns the recorded outcome of this test. 0.0

====

- Test system: LOX IMVI melanoma
- protocolText: NCI tumour cell line growth inhibition, 48 h
Recorded TGI, one value per entry.

> print(dat)
                                   molecule  assayvalue
1  Cc1c2c(n(CCc3ccc(Cl)cc3)c1C)NC(c1ccccc1)C(C#N)S2(=O)=O (stereo not given)     > 75 µM
2  COc1ccc2c(c1)c(CC(=O)O)c(C)n2C(=O)c1ccc(Cl)cc1    > 100 µM
3  Cc1[nH]c2ccccc2c1C1Cc2ccccc2N1C(=O)/C=C/C(=O)O (stereo not given)    > 100 µM

Next up:
Name the recorded TGI of the item `C/C(Nc1ccc(F)cc1)=C1/CCOC1=O` in your answer. > 100 µM

====

- System: SK-OV-3 ovarian
- protocolText: NCI tumour cell line growth inhibition, 48 h
observable: TGI (µM)
Report the figure in µM without appending any unit label.

> print(dat)
                            molecularstring  valueunit  assayvalue
1  CCCCN(CCCC)c1ccc(C(=N)c2ccc(N(CCCC)CCCC)cc2)cc1         µM        2.47

Next up:
Name the recorded TGI of the item `COc1ccc(-c2cc(-c3ccc(Nc4ccnc5cc(Cl)ccc45)cc3)[nH]c(=O)c2C#N)c2ccccc12` in your answer. 43.7

====

- Test system: LOX IMVI melanoma
- protocolText: NCI tumour cell line growth inhibition, 48 h
observable: TGI (µM)
Report the figure in µM without appending any unit label.

Solved entries:
molecule	assayValue
C[C@@H]1CC[C@H]2C(C(O)CCCCC(O)C3=C(C(F)(F)F)O[C@@H]4O[C@@]5(C)CC[C@H]6[C@H](C)CC[C@@H]3[C@@]46OO5)=C(C(F)(F)F)O[C@@H]3O[C@@]4(C)CC[C@@H]1[C@]32OO4 (some centres undefined)	11.8
COc1cc(C(=O)NC2CCN(C)CC2)c(F)cc1Nc1ncc2c(n1)N(C1CCCC1)CC(F)(F)C(=O)N2C	4.96
COc1ccc(/C=C2\S/C(=N/Nc3nc(-c4ccccc4)cs3)NC2=O)cc1OC	65.6
O=C(Nc1ccc(Cl)cc1)Nc1ccc(Nc2nncc3ccccc23)cc1	14.6
COC(=O)c1c(O)ccc2c1c1c(n2Cc2cccc(C)c2)C(=O)c2ccccc2C1=O	26.6
OC(CCNCc1ccccc1)c1ccc2ccccc2c1 (centres undefined)	27.2
O=[N+]([O-])c1cccc([As]=[As]c2cccc([N+](=O)[O-])c2)c1 (centres undefined)	0.146
O=C(O)c1nc(-c2ccccc2)[nH]c1C(=O)O	9.47

Give the observed TGI of `CCCOC(=O)N1CCN(/[N+]([O-])=N/Oc2ccc([N+](=O)[O-])cc2[N+](=O)[O-])CC1` for LOX IMVI melanoma. 1.08

====

Recorded GI50, one value per entry.
- Tested on: SF-295 CNS
- protocolText: NCI tumour cell line growth inhibition, 48 h

Solved entries:
molecule	observable	assayValue
O=C(NC[C@H](O)CO)c1ccncc1Nc1ccc(I)cc1F	GI50	> 41 µM
CC[C@H](CO)Nc1nc(NCc2ccccc2)n2ncc(C(C)C)c2n1	GI50	0.812 µM
O=C(Nc1ccc(Cl)cc1)Nc1ccc(Nc2nncc3ccccc23)cc1	GI50	2.84 µM
C[C@@H]1CC[C@H]2C(C(O)CCCCC(O)C3=C(C(F)(F)F)O[C@@H]4O[C@@]5(C)CC[C@H]6[C@H](C)CC[C@@H]3[C@@]46OO5)=C(C(F)(F)F)O[C@@H]3O[C@@]4(C)CC[C@@H]1[C@]32OO4 (stereo partly drawn)	GI50	53.7 µM
COc1ccc(C(=O)/C=C/c2c(Cl)c3c(c(OC)c2Cl)OCC(=O)N3)cc1	GI50	3.23 µM
C[CH2][Sn]([CH2]C)([O]C(=O)C(OC(C)=O)c1ccccc1)[O]C(=O)C(OC(C)=O)c1ccccc1 (stereo not drawn)	GI50	> 100 µM
CC(C)(O)CC(=O)NCCn1ccc2ncnc(Nc3ccc(Oc4cccc(C(F)(F)F)c4)c(Cl)c3)c21	GI50	3.79 µM

Name the recorded GI50 of the item `O=C(COc1ccc(/C=C2\Oc3ccccc3C2=O)cc1)Nc1nc2c(s1)CCCC2` in your answer. 10.1 µM

====

Recorded TGI, one value per entry.
- System: COLO 205 colon
- protocolText: NCI tumour cell line growth inhibition, 48 h

Solved entries:
> print(dat)
                                   molecule  assayvalue
1  CC(C)(O)CC(=O)NCCn1ccc2ncnc(Nc3ccc(Oc4cccc(C(F)(F)F)c4)c(Cl)c3)c21     > 10 µM
2  O=C1c2c(O)cccc2C(C2OC(CO)C(O)C(O)C2O)c2cc(CO)cc(O)c21 (centres undefined)    > 100 µM
3  COc1ccc(/C=C2\CCCC3=C2NC(N)=NC3c2ccc(OC)c(OC)c2)cc1OC (centres undefined)    > 100 µM

Name the recorded TGI of the item `CCOC(=O)c1c(N2CCCC2)ncn(Cc2ccccc2)c1=S` in your answer. > 100 µM

====

Recorded TGI, one value per entry.
- Tested on: SK-MEL-28 melanoma
- protocolText: NCI tumour cell line growth inhibition, 48 h

Solved entries:
> print(dat)
                                   compound  assayvalue
1      O=c1[nH]nc(-c2ccccc2)n1/N=C/c1cccnc1    > 100 µM
2  NCCCN(CCCN)CCN(CCN(CCCN)CCCN)CCN(CCCN)CCCN    > 100 µM
3  COc1ccc(C2SC(C)C(=O)N2NC(=O)C(O)c2ccccc2)cc1OC (stereo unspecified)    > 100 µM
4     COc1c(O)cc(O)c2c(=O)cc(-c3ccccc3)oc12    > 100 µM
5  NC(=O)c1c(NC(=O)c2ccc3c(c2)OCO3)sc2c1CCC(=O)C2    > 100 µM

Next up:
Name the recorded TGI of the item `COc1ccc(-c2cc(-c3cc4cc(Br)ccc4nc3Cl)c(C#N)c(N)n2)cc1` in your answer. > 12.5 µM

====

Recorded TGI, one value per entry.
- Tested on: UACC-257 melanoma
- protocolText: NCI tumour cell line growth inhibition, 48 h
Report the figure in µM without appending any unit label.

> print(dat)
                                   compound  valueunit  assayvalue
1  N#Cc1c(-c2ccc(Cl)cc2)c2c(n(C3OC(CO)C(O)C(O)C3O)c1=S)CCC2 (stereo not given)         µM        87.2

Next up:
Name the recorded TGI of the item `COC(=O)c1c(OC(C)=O)ccc2c1c1c(n2C)C(=O)c2ccccc2C1=O` in your answer. 44.8

====

- Test system: HL-60(TB) leukemia
- protocolText: NCI tumour cell line growth inhibition, 48 h
observable: TGI

> print(dat)
                                   compound  observable  assayvalue
1                          CN1CCN(CCCBr)CC1         TGI    > 100 µM
2  CN1c2ccccc2N(C)C23N(C)c4ccccc4N(C)C12N(C)c1ccccc1N3C (centres undefined)         TGI    > 100 µM
3  CC(C)C(OC(=O)c1ccc(NCc2cc(O)ccc2O)cc1)C(C)C         TGI    0.484 µM
4  CC1=C(CO)C(=O)O[C@@H]([C@@H](C)[C@H]2CC[C@H]3[C@@H]4C[C@@H](O)[C@@]5(O)CC=CC(=O)[C@]5(C)[C@H]4CC[C@]23C)C1         TGI    > 100 µM
5  CC(C)c1cccc2sc(NC(=O)C(=O)C(C#N)c3cccc4ccccc34)nc12 (centres undefined)         TGI    > 100 µM

Name the recorded TGI of the item `O=C1C(=O)c2ccccc2C(O)=C1CCCc1ccc(Oc2ccccc2)cc1` in your answer. 47.9 µM
